# method-description: method code SF-GLC, from DOI: 10.1016/s0021-9673(99)01009-2, PMID: 10669289
Exam item: assign 1 to entries whose logP is below 3 and 0 to entries at or above 3. Note that a value of exactly 3 receives 0.

> print(dat)
                                   compound  assigned.label
1  CC(=O)OC(C)(C)C1C=CC(C)CC1 (stereo not drawn)               0
2                     CC1=CCC2C[C@H]1C2(C)C               0
3  CC1=CCC(C(C)(C)O)CC1O (stereo not drawn)               1

-- ask Lab note: logP threshold 3. Does this compound come in strictly under it? CC1=CCC(C(C)(C)O)CC1 (stereo not drawn)
-- reply 0

-- ask Try this compound too: `C=C(C)[C@H]1CC=C(C)C(=O)C1`
-- reply 1

-- ask Try this compound too: C=C(C)C1CC=C(C)C(O)C1 (stereo not drawn)
-- reply 1

-- ask Try this compound too: CC1=CCC(O)(C(C)C)CC1 (stereo not drawn)
-- reply 1

-- ask Try this compound too: C=C(C)C1CCC(C)C(=O)C1 (stereo not drawn)
-- reply 1
